# System: IGROV1 ovarian
# Assay protocol: NCI tumour cell line growth inhibition, 48 h
Please provide measured TGI for the entries that follow.

Ask | For Cn1ccnc1CCc1ccc(Cl)c(Cl)c1 , what is its reported TGI?
Reply | > 100 µM

Ask | For CN(C)c1ccc(/C=C/C(=O)O)cc1 , what is its reported TGI?
Reply | > 100 µM

Ask | For FC(F)(F)c1cccc2c(SCCc3n[nH]c(=S)o3)ccnc12 , what is its reported TGI?
Reply | > 100 µM

Ask | For O=[N+]([O-])c1cccc(Cl)c1Oc1ccc(S(=O)(=O)/N=C(\NO)Nc2ccc(Cl)cc2)cc1 , what is its reported TGI?
Reply | 35.6 µM

Ask | For Cc1c2ccccc2c(C)n2c1nc1ccccc12 , what is its reported TGI?
Reply | 43.8 µM

Ask | For CCOC(=O)C(C(=O)OCC)C(=O)c1ccccc1C(=O)c1ccccc1 , what is its reported TGI?
Reply | > 100 µM
